Assay Overview: Solubility testing of peptides at different pH
Assay type: physicochemical
Condition Context: 50 mM phosphate buffer pH 9.0; target concentration 1 mg/ml; 2 hours agitation; read-out: Solubility Buffer pH 9.0
Starred links: 1 amine or outer side, 2 acyl side, 3 side chain; linkers in the order of their positions; H or OH if unused. Positions of bridges follow the written chain, without caps; N, C: chain ends. Non-standard residues stand in square brackets, D forms with d. Residues, ends and D or L forms follow the SMILES beside them. *: point of attachment. X3 = CN(CCCCC(=O)N[C@@H](CS[*:2])C(=O)[*:1])[*:3]; Trp(7-Me) = Cc1cccc2c(C[C@H](N)C(=O)O)c[nH]c12; αMeLys(Me2) = CN(C)CCCC[C@](C)(N)C(=O)O; X2 = CN(C)[C@@H](CCCCN[*:1])C(=O)[*:2]; 2Nal = N[C@@H](Cc1ccc2ccccc2c1)C(=O)O; AEF = NCCOc1ccc(C[C@H](N)C(=O)O)cc1; 3Pal = N[C@@H](Cc1cccnc1)C(=O)O; X4 = CN(CCCCCC(=O)[*:2])[*:1]; αMeL = CC(C)C[C@](C)(N)C(=O)O; Suc = O=C(CCC(=O)[*:2])[*:1]; Me2NCH2CH2 = CN(C)CC*; Aib = CC(C)(N)C(=O)O; Ava = NCCCCC(=O)O; Sar = CNCC(=O)O
Reported solubility at 2 h values are given for each entry in this list.
Readout: solubility at 2 h

[[record]]
molecule = "CC(=O)N[C@H]1CCCCNC(=O)[C@@H]2CSSC[C@H](NC(=O)[C@H](CCC(N)=O)NC(=O)[C@H](Cc3c[nH]c4ccccc34)NC1=O)C(=O)N[C@@H](Cc1ccc(OCCN)cc1)C(=O)N[C@@H](Cc1ccc3ccccc3c1)C(=O)NC(C)(C)C(=O)N[C@H](C(=O)N[C@@H](C)C(=O)N[C@H](CC(C)C)C(N)=O)CCC(=O)N(C)CCCCC(=O)N2 [compound 19] (Ac-KWQC[AEF][2Nal][Aib]EA[dL]-NH2; linker 1-4-8 via X3)"
readout = "solubility at 2 h"
result = "< 10 µg/mL"

[[record]]
molecule = "CC(C)C[C@@H](NC(=O)[C@H](CC(N)=O)NC(=O)[C@@H]1CC(=O)N(C)CCCCCC(=O)N[C@H]2CSSC[C@H](NC(=O)[C@H](CCC(N)=O)NC(=O)[C@H](Cc3c[nH]c4ccccc34)NC(=O)[C@H]([C@@H](C)O)NC(=O)[C@H](CC(N)=O)NC2=O)C(=O)N[C@@H](Cc2ccc(OCCN(C)C)cc2)C(=O)N[C@@H](Cc2ccc3ccccc3c2)C(=O)N[C@@](C)(CC(C)C)C(=O)N1)C(N)=O [compound 40] ([X4]CNTWQCY(Me2NCH2CH2)[2Nal][αMeL]DN[dL]-NH2; disulfide 2-7; lactam N-11)"
readout = "solubility at 2 h"
result = "< 10 µg/mL"

[[record]]
molecule = "CC(=O)NCCCC[C@@H]1NC(=O)[C@H](Cc2c[nH]c3c(C)cccc23)NC(=O)[C@H]([C@@H](C)O)NC(=O)[C@H](CC(N)=O)NC(=O)[C@@H]2CSSC[C@H](NC1=O)C(=O)N[C@@H](Cc1ccc(OCCN(C)C)cc1)C(=O)N[C@@H](Cc1ccc3ccccc3c1)C(=O)N[C@@](C)(CC(C)C)C(=O)N[C@H](C(=O)N[C@@H](CC(N)=O)C(=O)N[C@@H](Cc1c[nH]cn1)C(N)=O)CCCCNC(=O)CCC(=O)N2 [compound 23] (CNT[Trp(7-Me)]K(Ac)CY(Me2NCH2CH2)[2Nal][αMeL]KNH-NH2; disulfide 1-6; linker N-10 via Suc)"
readout = "solubility at 2 h"
result = "60 µg/mL"

[[record]]
molecule = "CC(=O)NCCCC[C@@H]1NC(=O)[C@H](Cc2c[nH]c3ccccc23)NC(=O)[C@@H](N(C)C)CCCCNC(=O)[C@@H]2CSSC[C@H](NC1=O)C(=O)N[C@@H](Cc1ccc(OCCN(C)C)cc1)C(=O)N[C@@H](Cc1ccc3ccccc3c1)C(=O)N[C@@](C)(CCCCN(C)C)C(=O)N[C@H](C(=O)N[C@@H](CC(N)=O)C(=O)N[C@@H](Cc1cccnc1)C(=O)N(C)CC(N)=O)CCC(=O)NCCCCC(=O)N2 [compound 36] ([Ava]C[X2]WK(Ac)CY(Me2NCH2CH2)[2Nal][αMeLys(Me2)]EN[3Pal][Sar]-NH2; disulfide 2-6; lactam N-10)"
readout = "solubility at 2 h"
result = "≥ 1150 µg/mL"

